Listed next: entries and their corresponding pKi.
Target: isolated recombinant JAK1 kinase domain (Homo sapiens (Human))
Sequence (P23458 875-1153): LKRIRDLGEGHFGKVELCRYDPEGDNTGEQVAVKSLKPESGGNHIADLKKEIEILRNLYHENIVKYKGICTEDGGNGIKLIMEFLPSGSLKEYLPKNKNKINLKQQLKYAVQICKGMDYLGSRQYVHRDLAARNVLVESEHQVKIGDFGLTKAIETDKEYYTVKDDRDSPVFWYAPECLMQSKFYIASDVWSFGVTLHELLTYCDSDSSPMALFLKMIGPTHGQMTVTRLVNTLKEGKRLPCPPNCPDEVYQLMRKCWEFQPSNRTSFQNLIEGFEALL
Assay: JAK1 enzyme assay (Caliper LabChip, peptide phosphorylation)
Format: biochemical
Conditions: isolated recombinant JAK1 kinase domain, 25 μM ATP
// pKi: -log10(molar conc.)

molecule: O=C(Nc1cn(CC(=O)N2CCCN(CCO)CC2)nc1-c1cc(Cl)ccc1OC(F)F)c1cnn2cccnc12 [Example 240]
study_system: isolated recombinant JAK1 kinase domain (Homo sapiens (Human))
pKi: 9.00
//
molecule: CN(Cc1cccc(C(F)(F)F)c1)C1CCN(C(=O)Cn2cc(NC(=O)c3cnn4cccnc34)c(-c3cc(Cl)ccc3OC(F)F)n2)CC1 [Example 128]
study_system: isolated recombinant JAK1 kinase domain (Homo sapiens (Human))
pKi: 8.95
//
molecule: O=C(Nc1cn(CCNCc2ccc(O)cc2)nc1-c1cc(Cl)ccc1OC(F)F)c1cnn2cccnc12 [Example 328]
study_system: isolated recombinant JAK1 kinase domain (Homo sapiens (Human))
pKi: 9.68

Lab note: next molecule to report on.
Prompt: Would you mind telling me what pKi value was observed for O=C(Nc1cn(CC(=O)N2CCC(C(=O)OCC3CCNCC3)CC2)nc1-c1cc(Cl)ccc1OC(F)F)c1cnn2cccnc12 [Example 341] ?
Completion: 9.28

* * *

Target: isolated recombinant JAK1 kinase domain (Homo sapiens (Human))
Experiment: JAK1 enzyme assay (Caliper LabChip, peptide phosphorylation)
Assay type: biochemical
Conditions: isolated recombinant JAK1 kinase domain, 25 μM ATP
Cut-off 0.7 nM on Ki: below means rule met, at or above means rule not met.

Solved entries (count: 3):
compound: O=C(Nc1cn(CC(=O)N2CCC(O)(c3ccccc3)CC2)nc1-c1cc(Cl)ccc1OC(F)F)c1cnn2cccnc12 [Example 289]
class_name: rule met

compound: CN(CC1(C#N)CCCCC1)C1CCN(C(=O)Cn2cc(NC(=O)c3cnn4cccnc34)c(-c3cc(Cl)ccc3OC(F)F)n2)CC1 [Example 114]
class_name: rule met

compound: N#CC1(NC2CCN(C(=O)Cn3cc(NC(=O)c4cnn5cccnc45)c(-c4cc(Cl)ccc4OC(F)F)n3)CC2)CC1 [Example 436]
class_name: rule met

Prompt: API: query returns whether the compound falls strictly under 0.7 nM in Ki. Query: Nc1nn2cccnc2c1C(=O)Nc1cn(C2CCN(CCCCOCCc3ccccc3)CC2)nc1-c1cc(Cl)ccc1OC(F)F [Example 181]
Completion: rule not met

* * *

Molecular target: isolated recombinant JAK2 kinase domain (Homo sapiens (Human))
Experiment: JAK2 enzyme assay (Caliper LabChip, peptide phosphorylation)
Settings: 25 μM ATP
pKi: −log10 of the molar value.
Decision: pKi compared against 9; not below it gives condition met, below it gives condition not met.

structure_notation: CN(C)CC1CCN(C(=O)Cn2cc(NC(=O)c3cnn4cccnc34)c(-c3cc(Cl)ccc3OC(F)F)n2)CC1
class_name: condition not met

Pending molecule:
Prompt: Reported pKi at or above 9? C[C@H](NCCn1cc(NC(=O)c2cnn3cccnc23)c(-c2cc(Cl)ccc2OC(F)F)n1)c1ccccc1
Completion: condition met

* * *

Biological target: isolated recombinant JAK2 kinase domain (Homo sapiens (Human), UniProt O60674)
Sequence (O60674 849-1124): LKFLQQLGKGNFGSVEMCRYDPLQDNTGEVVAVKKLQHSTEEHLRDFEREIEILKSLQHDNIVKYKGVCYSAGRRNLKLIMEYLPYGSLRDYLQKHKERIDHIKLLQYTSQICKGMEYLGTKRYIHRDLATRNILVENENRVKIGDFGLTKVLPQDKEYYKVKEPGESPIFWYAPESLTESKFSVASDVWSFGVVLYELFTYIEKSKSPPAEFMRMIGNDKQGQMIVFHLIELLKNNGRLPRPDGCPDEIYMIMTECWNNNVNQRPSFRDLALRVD
Experiment: JAK2 enzyme assay (Caliper LabChip, peptide phosphorylation)
Conditions: 25 μM ATP
Listed next: entries and their corresponding pKi.
// pKi: -log10(molar conc.)

Prompt: Would you mind telling me what pKi value was observed for O=C(Nc1cn(CC(=O)N2CCC(O)(CO)CC2)nc1-c1cc(Cl)ccc1OC(F)F)c1cnn2cccnc12 ?
Completion: 9.11

Prompt: Would you mind telling me what pKi value was observed for O=C(Nc1sc(-c2ccncc2)nc1-c1cc(Cl)ccc1OC(F)F)c1cnn2cccnc12 ?
Completion: 9.11

Prompt: Would you mind telling me what pKi value was observed for Nc1nn2cccnc2c1C(=O)Nc1cn(CC(=O)N2CCC(O)(Cc3ccccc3)CC2)nc1-c1cc(Cl)ccc1OC(F)F ?
Completion: 9.66

Prompt: Would you mind telling me what pKi value was observed for O=C(Nc1cn(CC(=O)N2C[C@H]3CN(CCCN4CCCC4=O)C[C@H]3C2)nc1-c1cc(Cl)ccc1OC(F)F)c1cnn2cccnc12 ?
Completion: 9.25

Prompt: Would you mind telling me what pKi value was observed for CN1CCC(=CCn2cc(NC(=O)c3cnn4cccnc34)c(-c3cc(Cl)ccc3OC(F)F)n2)CC1 ?
Completion: 8.68

Prompt: Would you mind telling me what pKi value was observed for CCCCN(C)C1CCN(c2nc(-c3cc(Cl)ccc3OC(F)F)c(NC(=O)c3cnn4cccnc34)s2)CC1 ?
Completion: 8.97

Prompt: Would you mind telling me what pKi value was observed for CN(C)C(=O)CN(C)C1CCN(C(=O)Cn2cc(NC(=O)c3cnn4cccnc34)c(-c3cc(Cl)ccc3OC(F)F)n2)CC1 ?
Completion: 8.76

Prompt: Would you mind telling me what pKi value was observed for O=C(O)CN1CCN(C(=O)Cn2cc(NC(=O)c3cnn4cccnc34)c(-c3cc(Cl)ccc3OC(F)F)n2)CC1 ?
Completion: 9.23

Prompt: Would you mind telling me what pKi value was observed for O=C(Nc1cn(CC(=O)N2C[C@H]3CN(CCCOC(=O)C4CCC4)C[C@H]3C2)nc1-c1cc(Cl)ccc1OC(F)F)c1cnn2cccnc12 ?
Completion: 9.14

Prompt: Would you mind telling me what pKi value was observed for CCOC(=O)C1CCN(CCN2CCN(C(=O)Cn3cc(NC(=O)c4cnn5cccnc45)c(-c4cc(Cl)ccc4OC(F)F)n3)CC2)CC1 ?
Completion: 8.74

Prompt: Would you mind telling me what pKi value was observed for O=C(Nc1cn(CC(=O)N2CCC3(CCNC3)CC2)nc1-c1cc(Cl)ccc1OC(F)F)c1cnn2cccnc12 ?
Completion: 9.14

Prompt: Would you mind telling me what pKi value was observed for O=C(Nc1cn(CC(=O)N2CCC(CN3CCC(F)(F)CC3)(c3ccccc3)CC2)nc1-c1cc(Cl)ccc1OC(F)F)c1cnn2cccnc12 ?
Completion: 7.97

Prompt: Would you mind telling me what pKi value was observed for CN(CCO)C1CCN(C(=O)Cn2cc(NC(=O)c3c(N)nn4cccnc34)c(-c3cc(Cl)ccc3OC(F)F)n2)CC1 ?
Completion: 9.41

* * *

Listed next: entries and their corresponding Ki.
Biological target: isolated recombinant JAK2 kinase domain (Homo sapiens (Human))
Experiment: JAK2 enzyme assay (Caliper LabChip, peptide phosphorylation)
Conditions: 25 μM ATP
Counter-ions that a name gives are not always drawn.
Just the number in nM, nothing appended.

compound: CN(C)C1CCN(C(=O)Cn2cc(NC(=O)c3c(N)nn4cccnc34)c(-c3cc(Cl)ccc3OC(F)F)n2)C1 (stereo not drawn)
result_number: 0.25
--
compound: CC(C)CN1C[C@@H]2CN(C(=O)Cn3cc(NC(=O)c4cnn5cccnc45)c(-c4cc(Cl)ccc4OC(F)F)n3)C[C@@H]2C1
result_number: 0.84

Prompt: Would you mind telling me what Ki value was observed for CN1C[C@@H]2[C@H](C1)[C@H](CO)N(C(=O)Cn1cc(NC(=O)c3cnn4cccnc34)c(-c3cc(Cl)ccc3OC(F)F)n1)[C@@H]2c1ccccc1 ?
Completion: 0.78

Prompt: Would you mind telling me what Ki value was observed for CSc1ccc(CNCCn2cc(NC(=O)c3cnn4cccnc34)c(-c3cc(Cl)ccc3OC(F)F)n2)cc1 [Example 346, formate] ?
Completion: 0.31

Prompt: Would you mind telling me what Ki value was observed for C[C@H]1COCCN1C1CCN(C(=O)Cn2cc(NC(=O)c3cnn4cccnc34)c(-c3cc(Cl)ccc3OC(F)F)n2)CC1 ?
Completion: 1.56

Prompt: Would you mind telling me what Ki value was observed for N=C(N)CCn1cc(NC(=O)c2cnn3cccnc23)c(-c2cc(Cl)ccc2OC(F)F)n1 ?
Completion: 0.39

* * *

Listed next: entries and their corresponding Ki.
Target: isolated recombinant JAK2 kinase domain (Homo sapiens (Human), UniProt O60674)
Assay: JAK2 enzyme assay (Caliper LabChip, peptide phosphorylation)
Settings: 25 μM ATP
Just the number in nM, nothing appended.

# count of solved cases: 3
structure_notation: CSCCNCCn1cc(NC(=O)c2cnn3cccnc23)c(-c2cc(Cl)ccc2OC(F)F)n1
unit_abbrev: nM
Ki: 0.32
//
structure_notation: CC(C)CN1CCN(C(=O)Cn2cc(NC(=O)c3cnn4cccnc34)c(-c3cc(Cl)ccc3OC(F)F)n2)CC1
unit_abbrev: nM
Ki: 1.16
//
structure_notation: CN(CC1(C)COC1)C1CCN(c2nc(-c3cc(Cl)ccc3OC(F)F)c(NC(=O)c3cnn4cccnc34)s2)CC1
unit_abbrev: nM
Ki: 1.07

Prompt: Would you mind telling me what Ki value was observed for O=C(Nc1sc(N2CCN(CCc3ccccc3)CC2)nc1-c1cc(Cl)ccc1OC(F)F)c1cnn2cccnc12 ?
Completion: 8.67

* * *

Biological target: isolated recombinant JAK2 kinase domain (Homo sapiens (Human), UniProt O60674)
Test: JAK2 enzyme assay (Caliper LabChip, peptide phosphorylation)
Conditions: 25 μM ATP
Listed next: entries and their corresponding pKi.
// pKi: -log10(molar conc.)

# count of solved cases: 5
structure_notation: CN1CC2(C1)CN(C(=O)Cn1cc(NC(=O)c3cnn4cccnc34)c(-c3cc(Cl)ccc3OC(F)F)n1)C2
study_system: isolated recombinant JAK2 kinase domain (Homo sapiens (Human), UniProt O60674)
pKi: 8.89
--
structure_notation: CC(F)(F)CNC1CCN(C(=O)Cn2cc(NC(=O)c3cnn4cccnc34)c(-c3cc(Cl)ccc3OC(F)F)n2)CC1
study_system: isolated recombinant JAK2 kinase domain (Homo sapiens (Human), UniProt O60674)
pKi: 9.15
--
structure_notation: CN(Cc1ccc(Br)cc1)C1CCN(C(=O)Cn2cc(NC(=O)c3cnn4cccnc34)c(-c3cc(Cl)ccc3OC(F)F)n2)CC1
study_system: isolated recombinant JAK2 kinase domain (Homo sapiens (Human), UniProt O60674)
pKi: 9.29
--
structure_notation: CN(C)C(=O)N1CCC(CN2C[C@@H]3CN(C(=O)Cn4cc(NC(=O)c5cnn6cccnc56)c(-c5cc(Cl)ccc5OC(F)F)n4)C[C@@H]3C2)CC1
study_system: isolated recombinant JAK2 kinase domain (Homo sapiens (Human), UniProt O60674)
pKi: 9.21
--
structure_notation: CN(CC(C)(F)F)C1CCN(C(=O)Cn2cc(NC(=O)c3cnn4cccnc34)c(-c3cc(Cl)ccc3OC(F)F)n2)CC1
study_system: isolated recombinant JAK2 kinase domain (Homo sapiens (Human), UniProt O60674)
pKi: 9.16

Lab note: next compound to report on.
Prompt: Would you mind telling me what pKi value was observed for O=C(Nc1cn(CC(=O)N2CCC(C(=O)OCC3CCNCC3)CC2)nc1-c1cc(Cl)ccc1OC(F)F)c1cnn2cccnc12 ?
Completion: 8.58
